- studySystem: Hck (UniProt P08631)
- Sequence (P08631 whole entry, looked up): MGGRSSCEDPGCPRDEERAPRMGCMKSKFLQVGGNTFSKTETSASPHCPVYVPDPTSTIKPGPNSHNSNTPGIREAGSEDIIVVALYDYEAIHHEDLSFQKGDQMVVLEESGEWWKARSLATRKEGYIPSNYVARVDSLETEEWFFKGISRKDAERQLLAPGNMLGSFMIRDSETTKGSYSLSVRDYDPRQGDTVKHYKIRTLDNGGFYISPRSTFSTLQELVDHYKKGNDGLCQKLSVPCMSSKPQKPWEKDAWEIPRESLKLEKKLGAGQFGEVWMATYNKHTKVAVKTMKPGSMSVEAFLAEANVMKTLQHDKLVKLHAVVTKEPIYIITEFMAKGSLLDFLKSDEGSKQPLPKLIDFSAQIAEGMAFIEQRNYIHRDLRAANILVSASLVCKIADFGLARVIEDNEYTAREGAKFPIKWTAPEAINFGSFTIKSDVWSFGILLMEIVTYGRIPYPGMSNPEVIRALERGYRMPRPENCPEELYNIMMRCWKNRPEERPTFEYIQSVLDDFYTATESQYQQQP
- assayNotes: phosphorylation enrichment, bacterial display (enrichment ratio); higher = better substrate or ligand; peptides without Tyr show the background;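 also: 11-residue human phosphosite peptides and single-mutation variants displayed on the E. coli surface, counted by deep sequencing, each peptide's frequency after selection divided by its frequency in the unselected input library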;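 also: frequency after pTyr selection over input frequency; kinase dosed for 20-30% of maximal phosphorylation in three min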
metric: phosphorylation enrichment
Numbers only.

Illustrative cases are given below, each with its answer.
>  <residues>
LVMFFYAIFGM [SCN1A_Y1684_I1683F]

>  <phosphorylation enrichment>
0.446

$$$$
>  <residues>
RESFKYFPSSL [CXXC1_Y218_YF]

>  <phosphorylation enrichment>
0.4

$$$$
>  <residues>
EEGENYQKGEQ [CHGB_Y173_R178Q]

>  <phosphorylation enrichment>
0.519

$$$$
>  <residues>
GSESDYIIMPN [SCARB1_Y133_V135I]

>  <phosphorylation enrichment>
0.526

$$$$
>  <residues>
VTVLDYDKTGK [SYT1_Y365_I368T]

>  <phosphorylation enrichment>
0.426

$$$$

Each sequence below has a recorded value; state its phosphorylation enrichment.
1. AESPEHVHMYT [FAM111A_Y511_Y511H]
2. NRDNTYNRVSE [FGA_Y127]
3. MECLPYGSLRD [JAK2_Y934_Y931C]

Reply:
1: 0.547; 2: 0.457; 3: 0.711
